testSystem: CXCR3 (Homo sapiens)
Construct: endogenous in cells
Sequence (P49682 1-368): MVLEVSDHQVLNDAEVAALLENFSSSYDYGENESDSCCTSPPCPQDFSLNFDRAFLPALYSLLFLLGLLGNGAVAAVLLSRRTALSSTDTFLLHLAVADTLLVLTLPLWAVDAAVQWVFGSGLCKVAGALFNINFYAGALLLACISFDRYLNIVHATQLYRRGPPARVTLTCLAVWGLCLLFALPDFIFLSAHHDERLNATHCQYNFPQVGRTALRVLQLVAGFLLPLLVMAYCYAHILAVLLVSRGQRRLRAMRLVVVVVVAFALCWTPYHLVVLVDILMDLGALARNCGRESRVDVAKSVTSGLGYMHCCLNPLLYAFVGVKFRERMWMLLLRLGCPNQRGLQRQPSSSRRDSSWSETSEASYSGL
assayProtocol: [125I]-IP-10 binding assay (CXCR3 binding)
conditionInfo: [125I]-IP-10 Binding IC50 (nM) 50% Plasma, 50% human plasma; primary, activated human lymphocytes

>  <compound>
C[C@H](c1nc2ncccc2c(=O)n1-c1ccc(Cl)cc1)N(CC1CCS(=O)(=O)CC1)C(=O)Cc1ccc(C(F)(F)F)c(F)c1 [Compound 1]

>  <testSystem>
CXCR3 (Homo sapiens)

>  <quantityUnit>
nM

>  <IC50>
12

$$$$

Cited source for all entries: patent US20110034487A1
